experiment: Equilibrium solubility of compound […] at pH 6.8 by high-throughput analysis; assay type: physicochemical
outcome-measure: solubility (µM)

// known answers, use as guide
smiles-text: COC[C@H](c1cnn2cc([C@@H](Nc3nnc(C(C)(F)F)o3)C3CCC(F)(F)CC3)nc2c1)N1C[C@@H](C(F)(F)F)NC1=O
assay-result: 400
//
smiles-text: COC[C@H](c1cnn2cc([C@@H](Nc3cc(C)on3)C3CCC(F)(F)CC3)nc2c1)N1C[C@@H](C(F)(F)F)NC1=O
assay-result: 600
//
smiles-text: COC[C@H](c1cnn2cc([C@@H](Nc3ncc(C4CC4)o3)C3CCC(F)(F)CC3)nc2c1)N1C[C@@H](C(F)(F)F)NC1=O
assay-result: 270
//
smiles-text: C/C=C(/F)C(=O)N[C@H](c1cn2ncc([C@@H](COC)N3C[C@@H](C(F)(F)F)NC3=O)cc2n1)C1CCC(F)(F)CC1
assay-result: 600
//
smiles-text: COC[C@H](c1cnn2cc([C@@H](NC(=O)C(F)=C(C)C)C3CCC(F)(F)CC3)nc2c1)N1C[C@@H](C(F)(F)F)NC1=O
assay-result: 340

1: COC[C@H](c1cnn2cc([C@@H](Nc3nc(C(C)(F)F)no3)C3CCC(F)(F)CC3)nc2c1)N1C[C@@H](C(F)(F)F)NC1=O
2: COC[C@H](c1cnn2cc([C@@H](Nc3nnc(C)s3)C3CCC(F)(F)CC3)nc2c1)N1C[C@@H](C(F)(F)F)NC1=O
3: COC[C@H](c1cnn2cc([C@@H](NC(=O)c3nonc3C)C3CCC(F)(F)CC3)nc2c1)N1C[C@@H](C(F)(F)F)NC1=O
4: COC[C@H](c1cnn2cc([C@@H](Nc3noc(C(C)(F)F)n3)C3CCC(F)(F)CC3)nc2c1)N1C[C@@H](C(F)(F)F)NC1=O
5: CC(F)(F)c1nnc(N[C@H](c2cn3ncc([C@@H](C4CC4)N4C[C@@H](C(F)(F)F)NC4=O)cc3n2)C2CCC(F)(F)CC2)o1
Rank ascending by solubility. Give your ranking as a list of the labels in the requested order. 5, 4, 1, 3, 2

A: COC[C@H](c1cnn2cc([C@@H](Nc3nnc(C(F)(F)F)o3)C3CCC(F)(F)CC3)nc2c1)N1C[C@@H](C(F)(F)F)NC1=O
B: COC[C@H](c1cnn2cc([C@@H](Nc3cc(OC)ncn3)C3CCC(F)(F)CC3)nc2c1)N1C[C@@H](C(F)(F)F)NC1=O
API: POST /compare with A and B ; response names the item with higher solubility. Please respond with the label that marks your chosen entry. B

* * *

assay: Metabolic stability in human liver microsomes assessed as intrinsic clearance; type: ADME, Microsome; details: read-out: CLH
outcome-measure: microsomal CLint (µL/min/mg)

smiles-text: COC[C@H](c1cnn2cc([C@@H](Nc3cc(C)on3)C3CCC(F)(F)CC3)nc2c1)N1C[C@@H](C(F)(F)F)NC1=O
unit-abbrev: µL/min/mg
microsomal CLint: 42
//
smiles-text: COC[C@H](c1cnn2cc([C@@H](Nc3nnc(C)n3C)C3CCC(F)(F)CC3)nc2c1)N1C[C@@H](C(F)(F)F)NC1=O
unit-abbrev: µL/min/mg
microsomal CLint: 18
//
smiles-text: COC[C@H](c1cnn2cc([C@@H](NC(=O)/C(F)=C\C3CC3)C3CCC(F)(F)CC3)nc2c1)N1C[C@@H](C(F)(F)F)NC1=O
unit-abbrev: µL/min/mg
microsomal CLint: 58

I: COC[C@H](c1cnn2cc([C@@H](Nc3nnc(C)o3)C3CCC(F)(F)CC3)nc2c1)N1C[C@@H](C(F)(F)F)NC1=O
II: COC[C@H](c1cnn2cc([C@@H](Nc3nnc(C(C)(F)F)o3)C3CCC(F)(F)CC3)nc2c1)N1C[C@@H](C(F)(F)F)NC1=O
III: COC[C@H](c1cnn2cc([C@@H](NC(=O)C(F)=C(C)C)C3CCC(F)(F)CC3)nc2c1)N1C[C@@H](C(F)(F)F)NC1=O
Rank ascending by microsomal CLint. Give your ranking as a list of the labels in the requested order. I, II, III

* * *

test: Plasma protein binding in human assessed as unbound fraction; assay type: ADME, cell-free
outcome-measure: fraction unbound
Lab note: jot down the number only; don't add units.

State its fraction unbound for this compound: `COC[C@H](c1cnn2cc([C@@H](NC(=O)/C(F)=C\C3CC3)C3CCC(F)(F)CC3)nc2c1)N1C[C@@H](C(F)(F)F)NC1=O` 0.094

* * *

test: Oral bioavailability in Sprague-Dawley rat at 3 mg/kg measured upto 24 hrs by LC-MS/MS analysis; assay type: ADME, organism-based; details: in vivo, po, 3 mg/kg, 24 h
outcome-measure: F (%)

// known answers, use as guide
smiles-text: COC[C@H](c1cnn2cc([C@@H](Nc3nnc(C(C)(F)F)o3)C3CCC(F)(F)CC3)nc2c1)N1C[C@@H](C(F)(F)F)NC1=O
F (%): 41
--
smiles-text: COC[C@H](c1cnn2cc([C@@H](NC(=O)/C(F)=C\C3(F)CC3)C3CCC(F)(F)CC3)nc2c1)N1C[C@@H](C(F)(F)F)NC1=O
F (%): 23
--
smiles-text: COC[C@H](c1cnn2cc([C@@H](NC(=O)/C(F)=C\C3CC3)C3CCC(F)(F)CC3)nc2c1)N1C[C@@H](C(F)(F)F)NC1=O
F (%): 106

P: C=C(F)C(=O)N[C@H](c1cn2ncc([C@@H](COC)N3C[C@@H](C(F)(F)F)NC3=O)cc2n1)C1CCC(F)(F)CC1
Q: C/C=C(/F)C(=O)N[C@H](c1cn2ncc([C@@H](COC)N3C[C@@H](C(F)(F)F)NC3=O)cc2n1)C1CCC(F)(F)CC1
Of P and Q , whose reported F is numerically smaller? Please respond with the label that marks your chosen entry. Q
(Q: 55%, P: 113%)

* * *

assay: Inhibition of biotinylated human IL-17A/AF647-labeled human IL-17RA protein-protein interaction preincubated for 30 mins with compound followed by addition of AF647-labeled human IL-17RA incubated for 90 min by TR-FRET assay
outcome-measure: IC50 (µM)

smiles-text: COC[C@H](c1cnn2cc([C@@H](Nc3nnc(C(C)(F)F)o3)C3CCC(F)(F)CC3)nc2c1)N1C[C@@H](C(F)(F)F)NC1=O
unit-abbrev: µM
IC50: 0.038

a: COC[C@H](c1cnn2cc([C@@H](Nc3nnc(C4CC4)o3)C3CCC(F)(F)CC3)nc2c1)N1C[C@@H](C(F)(F)F)NC1=O
b: C=C(F)C(=O)N[C@H](c1cn2ncc([C@@H](COC)N3C[C@@H](C(F)(F)F)NC3=O)cc2n1)C1CCC(F)(F)CC1
c: COC[C@H](c1cnn2cc([C@@H](Nc3nnc(C)o3)C3CCC(F)(F)CC3)nc2c1)N1C[C@@H](C(F)(F)F)NC1=O
Rank ascending by IC50. Give your ranking as a list of the labels in the requested order. b, a, c

* * *

test: Metabolic stability in human liver microsomes assessed as intrinsic clearance; assay type: ADME, Microsome; conditions: read-out: CLH
outcome-measure: microsomal CLint (µL/min/mg)

smiles-text: C/C=C(\F)C(=O)N[C@H](c1cn2ncc([C@@H](COC)N3C[C@@H](C(F)(F)F)NC3=O)cc2n1)C1CCC(F)(F)CC1
microsomal CLint / µL/min/mg: 90
//
smiles-text: C=C(F)C(=O)N[C@H](c1cn2ncc([C@@H](COC)N3C[C@@H](C(F)(F)F)NC3=O)cc2n1)C1CCC(F)(F)CC1
microsomal CLint / µL/min/mg: 11
//
smiles-text: CC(F)(F)c1nnc(N[C@H](c2cn3ncc([C@@H](C4CC4)N4C[C@@H](C(F)(F)F)NC4=O)cc3n2)C2CCC(F)(F)CC2)o1
microsomal CLint / µL/min/mg: 66
//
smiles-text: COC[C@H](c1cnn2cc([C@@H](NC(=O)c3nonc3C)C3CCC(F)(F)CC3)nc2c1)N1C[C@@H](C(F)(F)F)NC1=O
microsomal CLint / µL/min/mg: 32
//
smiles-text: COC[C@H](c1cnn2cc([C@@H](NC(=O)C(C)(F)F)C3CCC(F)(F)CC3)nc2c1)N1C[C@@H](C(F)(F)F)NC1=O
microsomal CLint / µL/min/mg: 15
//
smiles-text: COC[C@H](c1cnn2cc([C@@H](Nc3nnc(C)s3)C3CCC(F)(F)CC3)nc2c1)N1C[C@@H](C(F)(F)F)NC1=O
microsomal CLint / µL/min/mg: 50

P: COC[C@H](c1cnn2cc([C@@H](Nc3nc(C(C)(F)F)no3)C3CCC(F)(F)CC3)nc2c1)N1C[C@@H](C(F)(F)F)NC1=O
Q: C/C=C(/F)C(=O)N[C@H](c1cn2ncc([C@@H](COC)N3C[C@@H](C(F)(F)F)NC3=O)cc2n1)C1CCC(F)(F)CC1
R: COC[C@H](c1cnn2cc([C@@H](Nc3noc(C(C)(F)F)n3)C3CCC(F)(F)CC3)nc2c1)N1C[C@@H](C(F)(F)F)NC1=O
Sequence the entries by microsomal CLint, beginning with the highest number. Give your ranking as a list of the labels in the requested order. Q, R, P
(Q: 159 µL/min/mg, R: 49 µL/min/mg, P: 18 µL/min/mg)
